assayed system: Tyrosine-protein kinase Mer (Homo sapiens) (UniProt Q12866)
Sequence (whole entry): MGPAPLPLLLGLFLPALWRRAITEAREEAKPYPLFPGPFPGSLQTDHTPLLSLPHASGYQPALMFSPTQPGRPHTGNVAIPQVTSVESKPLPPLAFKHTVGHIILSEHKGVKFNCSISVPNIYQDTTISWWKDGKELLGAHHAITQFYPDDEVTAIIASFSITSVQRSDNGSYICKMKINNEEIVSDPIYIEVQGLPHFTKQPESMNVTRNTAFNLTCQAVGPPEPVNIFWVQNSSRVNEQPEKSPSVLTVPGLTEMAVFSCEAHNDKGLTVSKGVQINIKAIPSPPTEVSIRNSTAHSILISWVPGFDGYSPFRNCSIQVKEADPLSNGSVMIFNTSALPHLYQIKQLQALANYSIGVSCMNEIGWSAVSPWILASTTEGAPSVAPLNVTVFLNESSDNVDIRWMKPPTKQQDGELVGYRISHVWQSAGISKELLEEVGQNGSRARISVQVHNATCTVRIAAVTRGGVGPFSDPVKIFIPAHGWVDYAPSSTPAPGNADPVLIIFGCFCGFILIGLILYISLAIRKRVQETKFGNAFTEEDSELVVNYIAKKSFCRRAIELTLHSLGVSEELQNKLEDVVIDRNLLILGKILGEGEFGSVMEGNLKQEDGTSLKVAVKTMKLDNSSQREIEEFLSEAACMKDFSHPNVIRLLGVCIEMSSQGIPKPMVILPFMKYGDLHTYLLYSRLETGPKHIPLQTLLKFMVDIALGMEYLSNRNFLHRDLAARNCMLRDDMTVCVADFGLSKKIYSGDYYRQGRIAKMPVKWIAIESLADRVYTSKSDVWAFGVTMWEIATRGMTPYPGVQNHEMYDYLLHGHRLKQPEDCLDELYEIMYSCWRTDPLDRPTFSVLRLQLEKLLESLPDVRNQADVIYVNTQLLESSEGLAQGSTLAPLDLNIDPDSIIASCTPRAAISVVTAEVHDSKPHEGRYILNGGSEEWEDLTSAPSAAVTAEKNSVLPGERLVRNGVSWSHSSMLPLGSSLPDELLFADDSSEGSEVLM
test parameters: at 1 µM
measure: residual activity (%)
Give the quantity in %, number only.

molecule: C[S+]([O-])c1ccc(-c2nc(-c3ccc(F)cc3)c(-c3ccncc3)[nH]2)cc1 (stereo not given)
unit text: %
reading: 117
--
molecule: O=[N+]([O-])/C=C/c1ccc2c(c1)OCO2
unit text: %
reading: 106
--
molecule: c1cc(-c2cnn3cc(-c4ccc(OCCN5CCCCC5)cc4)cnc23)ccn1
unit text: %
reading: 33
--
molecule: O=c1[nH]c2ccccc2n1C1CCN(Cc2ccc(-c3nc4cc5[nH]cnc5cc4nc3-c3ccccc3)cc2)CC1
unit text: %
reading: 112

Reported residual activity for O=C1NC(=O)c2c1c1c3ccccc3n3c1c1c2c2ccccc2n1C1CCC3O1 : what is it?
34

###

residual activity by entry:
assayed system: SRSF protein kinase 1 (Homo sapiens) (UniProt Q96SB4)
Sequence (Q96SB4 whole entry): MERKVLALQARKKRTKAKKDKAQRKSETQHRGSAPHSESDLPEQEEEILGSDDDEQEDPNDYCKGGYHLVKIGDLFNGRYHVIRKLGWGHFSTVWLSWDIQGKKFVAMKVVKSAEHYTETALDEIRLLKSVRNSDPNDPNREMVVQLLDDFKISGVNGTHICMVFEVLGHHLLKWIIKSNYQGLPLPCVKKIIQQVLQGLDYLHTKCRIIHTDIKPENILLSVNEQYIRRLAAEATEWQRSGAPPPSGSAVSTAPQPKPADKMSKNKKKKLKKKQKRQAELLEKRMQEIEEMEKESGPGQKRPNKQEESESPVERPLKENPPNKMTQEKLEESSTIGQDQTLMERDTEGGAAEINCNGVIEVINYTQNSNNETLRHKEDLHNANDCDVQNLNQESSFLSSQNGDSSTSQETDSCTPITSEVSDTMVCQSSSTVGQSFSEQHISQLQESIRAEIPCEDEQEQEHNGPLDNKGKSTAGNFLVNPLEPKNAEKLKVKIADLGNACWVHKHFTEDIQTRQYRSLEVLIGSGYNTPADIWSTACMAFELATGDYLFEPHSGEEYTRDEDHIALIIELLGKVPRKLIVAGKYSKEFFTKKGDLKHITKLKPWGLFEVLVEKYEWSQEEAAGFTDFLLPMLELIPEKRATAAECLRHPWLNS
test parameters: at 1 µM
Give the quantity in %, number only.

compound: CC(C)(C)c1cc(C=C(C#N)C#N)cc(Br)c1O
residual activity / %: 114
//
compound: O=C1NC(=O)c2c1c1c3ccccc3n3c1c1c2c2ccccc2n1C1CCC3O1
residual activity / %: 92
//
compound: C[S+]([O-])c1ccc(-c2nc(-c3ccc(F)cc3)c(-c3ccncc3)[nH]2)cc1 (stereo unspecified)
residual activity / %: 112
//
compound: O=C1Nc2ccc3ncsc3c2/C1=C/c1c[nH]cn1
residual activity / %: 102
//
compound: COc1cc2ncnc(Nc3ccc(OCc4ccccc4)cc3)c2cc1OC
residual activity / %: 102

Okay, next one:
Reported residual activity for O=c1[nH]c2ccccc2n1C1CCN(Cc2ccc(-c3nc4cc5[nH]cnc5cc4nc3-c3ccccc3)cc2)CC1 : what is it?
80

###

residual activity by entry:
assayed system: Serine/threonine-protein kinase mTOR (Homo sapiens) (UniProt P42345)
test parameters: at 1 µM
Give the quantity in %, number only.

molecule: CN[C@@H]1C[C@H]2O[C@@](C)([C@@H]1OC)n1c3ccccc3c3c4c(c5c6ccccc6n2c5c31)C(=O)NC4
residual activity / %: 87

Reported residual activity for C[S+]([O-])c1ccc(-c2nc(-c3ccc(F)cc3)c(-c3ccncc3)[nH]2)cc1 (stereo not given) : what is it?
106

Reported residual activity for COC(=O)[C@@]1(O)C[C@H]2O[C@]1(C)n1c3ccccc3c3c4c(c5c6ccccc6n2c5c31)C(=O)NC4 : what is it?
90

Reported residual activity for O=C1NC(=O)c2c1c1c3ccccc3n3c1c1c2c2ccccc2n1C1CCC3O1 : what is it?
95

Reported residual activity for CC(C)[C@H](CO)Nc1nc(Nc2cccc(Cl)c2)c2ncn(C(C)C)c2n1 : what is it?
101

###

assayed system: Calcium/calmodulin-dependent protein kinase type II subunit beta (Homo sapiens) (UniProt Q13554)
Sequence (Q13554 whole entry): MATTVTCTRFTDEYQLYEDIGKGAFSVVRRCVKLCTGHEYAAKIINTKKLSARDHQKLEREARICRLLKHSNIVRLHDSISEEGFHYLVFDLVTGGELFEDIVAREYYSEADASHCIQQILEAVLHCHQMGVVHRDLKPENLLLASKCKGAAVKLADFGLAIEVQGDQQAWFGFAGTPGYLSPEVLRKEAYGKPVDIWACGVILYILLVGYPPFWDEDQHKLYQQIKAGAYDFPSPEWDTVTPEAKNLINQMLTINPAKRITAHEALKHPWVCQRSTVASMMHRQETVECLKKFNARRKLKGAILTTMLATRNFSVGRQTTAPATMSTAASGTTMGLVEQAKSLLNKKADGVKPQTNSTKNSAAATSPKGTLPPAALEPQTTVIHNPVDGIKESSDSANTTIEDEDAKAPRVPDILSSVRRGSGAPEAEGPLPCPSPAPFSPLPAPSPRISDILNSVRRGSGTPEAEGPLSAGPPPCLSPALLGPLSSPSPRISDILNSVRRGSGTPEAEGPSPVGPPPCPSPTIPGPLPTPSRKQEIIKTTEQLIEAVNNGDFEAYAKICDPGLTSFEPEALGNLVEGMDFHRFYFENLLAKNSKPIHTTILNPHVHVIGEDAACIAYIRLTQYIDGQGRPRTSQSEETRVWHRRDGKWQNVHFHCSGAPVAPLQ
test parameters: at 1 µM
residual activity by entry:

The following molecules have reported results that may help.
molecule: CCn1cnc2c(Nc3cccc(Cl)c3)nc(N[C@@H]3CCCC[C@@H]3N)nc21
residual activity: 93%
//
molecule: O=c1[nH]c2ccccc2n1C1CCN(Cc2ccc(-c3nc4cc5[nH]cnc5cc4nc3-c3ccccc3)cc2)CC1
residual activity: 94%
//
molecule: c1cc(-c2cnn3cc(-c4ccc(OCCN5CCCCC5)cc4)cnc23)ccn1
residual activity: 48%
//
molecule: CC(C)[C@H](CO)Nc1nc(Nc2cccc(Cl)c2)c2ncn(C(C)C)c2n1
residual activity: 95%
//
molecule: N/C(=N\[N+](=O)[O-])N/N=C\c1ccc(-c2cccc([N+](=O)[O-])c2)o1
residual activity: 92%
//
molecule: O=C1NC(=O)c2c1c1c3ccccc3n3c1c1c2c2ccccc2n1C1CCC3O1
residual activity: 32%

Reported residual activity for C[S+]([O-])c1ccc(-c2nc(-c3ccc(F)cc3)c(-c3ccncc3)[nH]2)cc1 (stereo not drawn) : what is it?
114%

Reported residual activity for COc1cc(OC)c(/C=C2\C(=O)Nc3ccccc32)c(OC)c1 : what is it?
102%

###

residual activity by entry:
assayed system: Serine/threonine-protein kinase TAO2 (Homo sapiens)
test parameters: at 1 µM
Give the quantity in %, number only.

The following compounds have reported results that may help.
compound: CC(C)(C)c1cc(C=C(C#N)C#N)cc(Br)c1O
assayed system: Serine/threonine-protein kinase TAO2 (Homo sapiens)
reading: 113
//
compound: O=C1c2ccccc2-c2nc3nnnn3nc21
assayed system: Serine/threonine-protein kinase TAO2 (Homo sapiens)
reading: 111
//
compound: C[S+]([O-])c1ccc(-c2nc(-c3ccc(F)cc3)c(-c3ccncc3)[nH]2)cc1 (stereo unspecified)
assayed system: Serine/threonine-protein kinase TAO2 (Homo sapiens)
reading: 111
//
compound: COC(=O)[C@@]1(O)C[C@H]2O[C@]1(C)n1c3ccccc3c3c4c(c5c6ccccc6n2c5c31)C(=O)NC4
assayed system: Serine/threonine-protein kinase TAO2 (Homo sapiens)
reading: 16
//
compound: COc1ccc2c(c1)/C(=C/c1cnc[nH]1)C(=O)N2
assayed system: Serine/threonine-protein kinase TAO2 (Homo sapiens)
reading: 72

Okay, next one:
Reported residual activity for COc1cc(OC)c(/C=C2\C(=O)Nc3ccccc32)c(OC)c1 : what is it?
104

###

assayed system: Serine/threonine-protein kinase TAO1 (Homo sapiens) (UniProt Q7L7X3)
Sequence (whole entry): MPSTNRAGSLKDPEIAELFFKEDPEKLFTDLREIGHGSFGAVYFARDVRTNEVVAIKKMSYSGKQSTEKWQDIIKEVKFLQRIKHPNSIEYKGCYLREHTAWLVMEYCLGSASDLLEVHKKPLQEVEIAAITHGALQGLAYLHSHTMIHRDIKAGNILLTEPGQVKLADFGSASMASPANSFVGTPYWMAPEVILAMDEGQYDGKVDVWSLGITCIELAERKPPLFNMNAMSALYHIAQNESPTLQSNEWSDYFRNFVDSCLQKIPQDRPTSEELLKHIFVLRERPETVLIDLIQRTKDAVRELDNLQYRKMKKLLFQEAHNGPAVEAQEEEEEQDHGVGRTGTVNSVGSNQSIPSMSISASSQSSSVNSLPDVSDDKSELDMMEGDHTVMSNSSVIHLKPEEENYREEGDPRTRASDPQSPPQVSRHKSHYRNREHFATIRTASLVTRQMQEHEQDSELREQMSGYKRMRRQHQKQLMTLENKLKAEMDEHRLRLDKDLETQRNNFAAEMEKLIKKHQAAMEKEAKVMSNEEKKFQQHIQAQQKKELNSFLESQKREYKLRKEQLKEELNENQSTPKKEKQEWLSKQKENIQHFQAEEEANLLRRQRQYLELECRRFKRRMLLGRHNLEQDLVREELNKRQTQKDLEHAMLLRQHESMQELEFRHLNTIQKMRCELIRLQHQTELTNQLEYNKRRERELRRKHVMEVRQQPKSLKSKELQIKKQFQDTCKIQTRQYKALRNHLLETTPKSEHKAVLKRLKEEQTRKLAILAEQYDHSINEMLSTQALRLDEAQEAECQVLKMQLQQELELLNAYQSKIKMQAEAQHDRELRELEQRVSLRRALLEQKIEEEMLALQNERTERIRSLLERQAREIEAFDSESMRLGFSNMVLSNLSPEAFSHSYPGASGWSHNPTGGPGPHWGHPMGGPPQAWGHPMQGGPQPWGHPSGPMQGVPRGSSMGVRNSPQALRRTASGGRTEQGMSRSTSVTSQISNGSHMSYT
test parameters: at 10 µM
# class assignment by measured residual activity: low class (below 7%), middle class (7% to below 80%), high class (80% or more)

Known results for molecules:
molecule: COC(=O)[C@@]1(O)C[C@H]2O[C@]1(C)n1c3ccccc3c3c4c(c5c6ccccc6n2c5c31)C(=O)NC4
assayed system: Serine/threonine-protein kinase TAO1 (Homo sapiens) (UniProt Q7L7X3)
assigned category: low class
--
molecule: COc1ccc2c(c[n+](C)c3c4cc5c(cc4ccc23)OCO5)c1OC
assayed system: Serine/threonine-protein kinase TAO1 (Homo sapiens) (UniProt Q7L7X3)
assigned category: high class
--
molecule: O=C1Nc2ccc3ncsc3c2/C1=C/c1c[nH]cn1
assayed system: Serine/threonine-protein kinase TAO1 (Homo sapiens) (UniProt Q7L7X3)
assigned category: low class

Looking at CC(C)(C)c1cc(C=C(C#N)C#N)cc(Br)c1O , which class would you pick?
middle class

Looking at CCn1cnc2c(Nc3cccc(Cl)c3)nc(N[C@@H]3CCCC[C@@H]3N)nc21 , which class would you pick?
middle class

Looking at N/C(=N\[N+](=O)[O-])N/N=C\c1ccc(-c2cccc([N+](=O)[O-])c2)o1 , which class would you pick?
high class

Looking at COc1cc(OC)c(/C=C2\C(=O)Nc3ccccc32)c(OC)c1 , which class would you pick?
high class

Looking at C[S+]([O-])c1ccc(-c2nc(-c3ccc(F)cc3)c(-c3ccncc3)[nH]2)cc1 (centres undefined) , which class would you pick?
middle class
